- Tested on: pERK in MKN1 cells
- Procedure Summary: Inhibition of KRas phosphorylation of ERK (Cisbio HTRF pERK assay)
- Condition Notes: Homo sapiens, MKN-1, 3 h, read-out: Inhibition (HTRF IC50) of KRas-mediated Phosphorylation of ERK, MKN1
Lab note: class by IC50, see zone 1 (below 40 nM), zone 2 (40 nM to below 100 nM), zone 3 (100 nM or more)

Please indicate the class for CCc1c(F)ccc2cc(O)cc(-c3ncc4c(NCC5NC(=O)NC5=O)nc(OC[C@@]56CCCN5C[C@H](F)C6)nc4c3F)c12 (stereo partly shown) based on its IC50.
zone 3

Same for CCc1c(F)ccc2cc(O)cc(-c3ncc4c(N5CCC[C@@H](O)[C@H]5C)nc(OC[C@@]56CCCN5C[C@H](F)C6)nc4c3F)c12
zone 3

Same lookup for CCc1c(F)ccc2cc(O)cc(-c3ncc4c(NC[C@@H]5COC[C@@H]5O)nc(OC[C@@]56CCCN5C[C@H](F)C6)nc4c3F)c12 (single isomer, unassigned) , please.
zone 3

What about this molecule? CCc1c(F)ccc2cc(O)cc(-c3ncc4c(N5CC(O)CC(F)(F)C5)nc(OC[C@@]56CCCN5C[C@H](F)C6)nc4c3F)c12 (stereo partly shown)
zone 1

Would you mind doing CCc1c(F)ccc2cc(O)cc(-c3ncc4c(N5CCCCCCC5)nc(OC[C@@]56CCCN5C[C@H](F)C6)nc4c3F)c12 as well?
zone 1

// same read-out, input: CCc1c(F)ccc2cc(O)cc(-c3ncc4c(N5C[C@H](CO)OC[C@](C)(O)C5)nc(OC[C@@]56CCCN5C[C@H](F)C6)nc4c3F)c12
zone 2

And for CCc1c(F)ccc2cc(O)cc(-c3ncc4c(Nc5cnn(-c6ccncc6)c5)nc(OC[C@@]56CCCN5C[C@H](F)C6)nc4c3F)c12 ?
zone 3

Item: CCc1c(F)ccc2cc(O)cc(-c3ncc4c(N5CCC[C@]6(CC(=O)N6)C5)nc(OCC5(CN6CCCC6)CC5)nc4c3F)c12
zone 3

Next up: C#Cc1c(F)ccc2cc(O)cc(-c3ncc4c(N5CCCn6nc(N)cc6C5)nc(OC[C@@]56CCCN5C[C@H](F)C6)nc4c3F)c12
zone 2

Cool, now Oc1cc(-c2ncc3c(N4CC5CC(O)CC4C5)nc(OC[C@@]45CCCN4C[C@H](F)C5)nc3c2F)c2c(Br)c(F)ccc2c1 (stereo partly shown)
zone 1

Another molecule: CCc1c(F)ccc2cc(O)cc(-c3ncc4c(N5C[C@H](O)CC[C@H](O)C5)nc(OC[C@@]56CCCN5C[C@H](F)C6)nc4c3F)c12
zone 3

Next record, please: CCc1c(F)ccc2cc(O)cc(-c3ncc4c(N5CCCC6(C5)C[S+]([O-])C6)nc(OC[C@@]56CCCN5C[C@H](F)C6)nc4c3F)c12 (stereo partly shown)
zone 3

Next record, please: C#Cc1c(F)ccc2cc(O)cc(-c3ncc4c(N5CCC[C@@](C)(O)C5)nc(OC[C@@]56CCCN5C[C@H](F)C6)nc4c3F)c12
zone 1

What about this molecule? O=C1NC(=O)C2(CCCN(c3nc(OC[C@@]45CCCN4C[C@H](F)C5)nc4c(F)c(-c5cc(O)cc6ccc(F)c(F)c56)ncc34)C2)N1 (stereo partly shown)
zone 1

Proceed to CCc1c(F)ccc2cc(O)cc(-c3ncc4c(N5CCC[C@@](C)(O)C5)nc(OC[C@]56CCCN5[C@H](COC(=O)N(C)C)CC6)nc4c3F)c12
zone 1

Entry CCc1c(F)ccc2cc(O)cc(-c3ncc4c(N5CCCC(NS(N)(=O)=O)C5)nc(OC[C@@]56CCCN5C[C@H](F)C6)nc4c3F)c12 (stereo partly shown) please
zone 2

Again, but for CCc1c(F)ccc2cc(O)cc(-c3ncc4c(N5CCC[C@@](C)(O)C5)nc(OC[C@@]56CCCN5C[C@H](O)C6)nc4c3F)c12
zone 1

Okay, and CCc1c(F)ccc2cc(O)cc(-c3ncc4c(N5CCCC6(CCC(F)(F)C6)C5)nc(OC[C@@]56CCCN5C[C@H](F)C6)nc4c3F)c12 (stereo partly shown) ?
zone 2

Now give it for CCc1c(F)ccc2cc(O)cc(-c3ncc4c(N5CCCc6nn(C(=O)NC(C)C)cc6C5)nc(OC[C@@]56CCCN5C[C@H](F)C6)nc4c3F)c12 too.
zone 3

Input CCc1c(F)ccc2cc(O)cc(-c3ncc4c(N5CCCn6nc(C(=O)N(C)C)cc6C5)nc(OCC5(CN(C)C)CC5)nc4c3F)c12
zone 3

One more molecule: CCc1c(F)ccc2cc(O)cc(-c3ncc4c(N5CCCn6nc(C(=O)N7CCCC7)cc6C5)nc(OC[C@@]56CCCN5C[C@H](F)C6)nc4c3F)c12
zone 1

These measurements were taken from patent US12398154B2.
